- Tested on: UTP-stimulated Ca2+ response in HT-29 cells
- assayMethodText: Ca FLIPR TETRA assay, ANTAGONIST mode, stimulation with 0.6 μM UTP
- Format: cell-based, human
- conditionParameters: Homo sapiens; HT-29 cells, antagonist mode, 0.6 μM UTP
pIC50: −log10 of the molar value.
observable: pIC50

Enquiry: Quickly give me recorded pIC50 for CC(C)(CC(=O)N1CCN(C(=O)c2cn3nc(-c4ccc(F)cc4)cc(C(C)(C)C)c3n2)C(C)(C)C1)C(=O)O
Return: < 6.00

Enquiry: Quickly give me recorded pIC50 for CC(C)(C)c1cc(-c2ccc(F)cc2)nn2cc(C(=O)N3CCN(C(=O)[C@H]4C[C@@H](C(=O)O)C4)CC3(C)C)nc12
Return: < 6.00

Enquiry: Quickly give me recorded pIC50 for CC(C)(C)c1cc(-c2ccc(F)cc2)nn2cc(C(=O)N3CCN(C(=O)CCC#N)CC3(C)C)nc12
Return: < 6.00

Enquiry: Quickly give me recorded pIC50 for CC1(C)C(=O)NCCN1C(=O)c1cn2nc(-c3ccc(F)cc3)cc(-c3cccnc3)c2n1
Return: < 6.00
